The reported numbers originate from ChEMBL document CHEMBL1122036.

Listing of recorded Km by entry.
- Organism: Rattus norvegicus
- test method notes: Substrate concentration for half maximum-velocity in rat muscle pyruvate kinase was determined.
- Format: ADME, organism-based
- condition description: in vivo
The answer is to be given in µM; state only the numeric part.

CN(CCCN(C)C(=O)CCCCNc1ncnc2c1ncn2[C@@H]1O[C@H](COP(=O)(O)OP(=O)(O)O)[C@@H](O)[C@H]1O)C(=O)CCCCNC(=O)OCc1ccccc1 ... 70

Now turn to the next molecule.
Identify measured Km associated with `CC(=O)N(C)CCCCN(C)c1ncnc2c1ncn2[C@@H]1O[C@H](COP(=O)(O)OP(=O)(O)O)[C@@H](O)[C@H]1O`
3600

###

- target system: GTP:AMP phosphotransferase AK3, mitochondrial (Rattus norvegicus)
- Sequence (P29411 whole entry): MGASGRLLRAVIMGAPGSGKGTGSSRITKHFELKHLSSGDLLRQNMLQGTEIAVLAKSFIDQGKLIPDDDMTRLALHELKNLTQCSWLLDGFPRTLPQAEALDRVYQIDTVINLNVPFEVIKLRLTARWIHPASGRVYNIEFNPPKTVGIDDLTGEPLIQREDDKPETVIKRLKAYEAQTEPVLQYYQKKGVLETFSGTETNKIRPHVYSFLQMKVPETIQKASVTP
- test method notes: Competitive inhibition of adenylate kinase III in rat liver with respect to ATP
- Format: tissue-based
measurement label: Ki (µM)
A number alone suffices; assume µM.

Quote Ki reported for `CC(=O)N(C)CCCCN(C)c1ncnc2c1ncn2[C@@H]1O[C@H](COP(=O)(O)OP(=O)(O)OP(=O)(O)O)[C@@H](O)[C@H]1O` please.
900

###

- test method notes: Reaction velocity relative to ATP (=1) in yeast hexokinase was determined at 5 mM concentration.
- Assay type: ADME
- condition description: 5000 µM
measurement label: Velocity relative to ATP
I only need the number, thanks.

Some solved cases for reference:
O=C(CI)NCCCCCCCCNc1ncnc2c1ncn2[C@@H]1O[C@H](COP(=O)(O)OP(=O)(O)OP(=O)(O)O)[C@@H](O)[C@H]1O ... 1.8
Nc1ncnc2c1nc(NCCCCCCCCNC(=O)CI)n2[C@@H]1O[C@H](COP(=O)(O)OP(=O)(O)OP(=O)(O)O)[C@@H](O)[C@H]1O ... 0.54
CN(CCCCN(C)c1ncnc2c1ncn2[C@@H]1O[C@H](COP(=O)(O)OP(=O)(O)OP(=O)(O)O)[C@@H](O)[C@H]1O)C(=O)CCCNC(=O)CI ... 1.2

For the molecule `CN(CCCN(C)C(=O)CCCCNc1ncnc2c1ncn2[C@@H]1O[C@H](COP(=O)(O)OP(=O)(O)OP(=O)(O)O)[C@@H](O)[C@H]1O)C(=O)CCCCNC(=O)CI` , report Velocity relative to ATP.
0.73

###

- Species on record: Rattus norvegicus
- test method notes: Substrate concentration for half maximum-velocity in rat kidney pyruvate kinase was determined
- Type: ADME, organism-based
- condition description: in vivo
measurement label: Km (mM)
Form entry: value (mM) — number only.

For the molecule `CC(=O)N(C)CCCCN(C)c1ncnc2c1ncn2[C@@H]1O[C@H](COP(=O)(O)OP(=O)(O)O)[C@@H](O)[C@H]1O` , give its measured Km value.
1.7
